assay: probe aXIP binding to arrayed compounds – biochemical, NeuroSMM set, 635/667 nm fluorescence, primary screen (AID 1119); conditions: small-molecule microarray, higher = more signal, called active from +8 up or from −8 down;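 note: probe is the protein aXip251-270 applied at 1 µg/mL to compound-printed slides; binding of probe to printed compounds measured as 667 nm fluorescence plus signal to noise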
Record form. Attribute: composite Z-score. Fill in for each entry.
Reply with the value as a number alone.

[ask] Name the recorded composite Z-score for COc1ccc(C#Cc2ccc3c(c2)[C@]2(C(=O)N3)[C@H](c3ccc(O)cc3)N3[C@H](c4ccccc4)[C@H](c4ccccc4)OC(=O)[C@H]3[C@@H]2C(=O)Nc2nc3ccccc3s2)cc1 .
[reply] 0.276

[ask] Which composite Z-score is listed for CC(C)N1C(=O)C[C@@](C(=O)NC2CC2)(c2ccc([N+](=O)[O-])cc2)[C@H]1c1ccc(CO)cc1 ?
[reply] -0.239

[ask] Requested field: composite Z-score. Item: COC(=O)[C@@]1(Cc2ccc(OC)cc2)[C@H]2c3cc(C(=O)N4CCCC4)n(CCc4c[nH]c5ccc(O)cc45)c3C[C@H]2CN1C(=O)c1ccccc1
[reply] 0.714
